Non-standard residues stand in square brackets, D forms with d. Residues, ends and D or L forms follow the SMILES beside them. *: point of attachment. Asu = N[C@@H](CCCCCC(=O)O)C(=O)O; NHOH = ON*
A short record of Ki observed with HDAC2 (Homo sapiens, UniProt Q92769) follows.
Sequence (Q92769 whole entry): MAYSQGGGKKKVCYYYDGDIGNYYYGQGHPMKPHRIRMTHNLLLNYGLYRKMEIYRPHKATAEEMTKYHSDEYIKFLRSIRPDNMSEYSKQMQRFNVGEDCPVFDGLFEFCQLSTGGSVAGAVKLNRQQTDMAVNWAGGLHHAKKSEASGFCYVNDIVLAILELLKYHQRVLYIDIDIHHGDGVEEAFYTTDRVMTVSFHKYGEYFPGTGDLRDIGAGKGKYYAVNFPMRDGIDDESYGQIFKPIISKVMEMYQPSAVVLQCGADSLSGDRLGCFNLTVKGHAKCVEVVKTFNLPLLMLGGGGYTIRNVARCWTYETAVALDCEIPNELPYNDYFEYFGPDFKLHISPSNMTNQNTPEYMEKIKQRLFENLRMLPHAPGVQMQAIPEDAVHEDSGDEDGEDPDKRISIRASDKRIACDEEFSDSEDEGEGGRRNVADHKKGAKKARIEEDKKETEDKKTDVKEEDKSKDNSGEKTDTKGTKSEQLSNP
recordedEndpoint: Ki

CC(=O)N[C@@H](C)C(=O)N[C@@H](CCCNC(=N)N)C(=O)N[C@@H](CCCCN)C(=O)N[C@@H](CO)C(=O)N[C@H](C(=O)NCC(=O)NCC(=O)N[C@@H](CCCCN)C(=O)N[C@@H](C)C(=O)N1CCC[C@H]1C(=O)N[C@@H](CCCNC(=N)N)C(=O)N[C@@H](CCCCCC(=O)NO)C(=O)N[C@@H](CCC(N)=O)C(=O)N[C@@H](CC(C)C)C(=O)N[C@@H](C)C(=O)N[C@H](C(=O)N[C@@H](Cc1c[nH]c2ccccc12)C(N)=O)[C@@H](C)O)[C@@H](C)O [13a] (Ac-ARKSTGGKAPR[Asu](NHOH)QLATW-NH2) :: 60 nM
CC(=O)N1CCC[C@H]1C(=O)N[C@@H](CCCNC(=N)N)C(=O)N[C@@H](CCCCN)C(=O)N[C@@H](CCC(N)=O)C(=O)N[C@@H](CC(C)C)C(=O)N[C@@H](C)C(=O)N[C@H](C(=O)N[C@@H](CCCCN)C(=O)N[C@@H](C)C(=O)N[C@@H](C)C(=O)N[C@@H](CCCNC(=N)N)C(=O)N[C@@H](CCCCCC(=O)NO)C(=O)N[C@@H](CO)C(=O)N[C@@H](C)C(=O)N1CCC[C@H]1C(=O)N[C@@H](C)C(=O)N[C@@H](Cc1c[nH]c2ccccc12)C(N)=O)[C@@H](C)O [14a] (Ac-PRKQLATKAAR[Asu](NHOH)SAPAW-NH2) :: 98 nM

Sourced from paper PMC7782793
